Cited source: patent US20020051978A1

System: 60 cancer cell lines (NCI 60 cancer cell line series)
EXPERIMENT_DESCRIPTION: NCI-DTP in vitro cancer screen, sulforhodamine B (SRB) growth inhibition, 48 hour exposure; further: key: Low (1); Medium (2); High (3) sensitivity to a given compound
Type: cell-based, human
CONDITION_DESCRIPTION: cell line Renal TK10, CL9024
From the text: Cancer Cell Line Preparation. Sixty cancer cell lines were obtained from the National Cancer Institute Developmental Therapeutics Program (NCI-DTP). […] No-drug, no-cell and no-growth controls are included. […] From dose response curves based on the SRB data, various parameters can be determined. […] More precisely, the quantity used in the calculation to be described is the potency measure -log{GI50}. […]
Where a name gives a salt, the structure may show the parent alone.
Recorded sensitivity class Renal TK10 CL9024 by entry
Answer as a number with no unit attached.

In the examples that follow, each entry is paired with its recorded sensitivity class Renal TK10 CL9024.
1. COc1cccc2c1C(=O)c1c(O)c3c(c(O)c1C2=O)C[C@@](O)(C(C)=O)C[C@@H]3O[C@H]1C[C@H](N)[C@H](O)[C@H](C)O1 :: 1
2. NC(=O)NO [Hydroxyurea] :: 1
3. CC[C@]1(O)C[C@@H]2CN(CCc3c([nH]c4ccccc34)[C@@](C(=O)OC)(c3cc4c(cc3OC)N(C)[C@H]3[C@@](O)(C(=O)OC)[C@H](OC(C)=O)[C@]5(CC)C=CCN6CC[C@]43[C@@H]65)C2)C1 [Vinblastine sulfate] :: 1
4. CC[C@]1(O)C[C@H]2CN(CCc3c([nH]c4ccccc34)[C@@](C(=O)OC)(c3cc4c(cc3OC)N(C=O)[C@H]3[C@@](O)(C(=O)OC)[C@H](OC(C)=O)[C@]5(CC)C=CCN6CC[C@]43[C@@H]65)C2)C1 [Vincristine sulfate] :: 1
5. Sc1ncnc2nc[nH]c12 :: 2

Consider now this further compound.
Query: Look up and report measured sensitivity class Renal TK10 CL9024 for this entry: "CC[C@@]1(O)C(=O)OCc2c1cc1n(c2=O)Cc2cc3c(CN(C)C)c(O)ccc3nc2-1"
Result: 1
